# Tested on: CHO
# assayMethodText: Cytotoxicity against CHO cells by MTT assay
# Type: cell-based, Cricetulus griseus
# experimentalParameters: Cricetulus griseus, CHO
Listing of entries alongside the reported pIC50.
Please treat pIC50 as minus the base-10 logarithm of the molar concentration.

Consider the following illustrative entries.
{"compound": "C[C@H]1[C@@H](OCCNCc2ccco2)O[C@@H]2O[C@@]3(C)CC[C@H]4[C@H](C)CC[C@@H]1[C@@]24OO3.O=C(O)C(=O)O", "pIC50": 4.10}
{"compound": "C[C@H]1[C@@H](OCCNCCNc2ccccc2)O[C@@H]2O[C@@]3(C)CC[C@H]4[C@H](C)CC[C@@H]1[C@@]24OO3.O=C(O)C(=O)O", "pIC50": 4.32}
{"compound": "CC[C@H]1CN2CCc3cc(OC)c(OC)cc3[C@@H]2C[C@@H]1C[C@H]1NCCc2cc(OC)c(OC)cc21 [EMETINE]", "pIC50": 7.70}

Prompt line: Which pIC50 reading was recorded for the compound `C[C@H]1[C@@H](OCCN(C)Cc2ccccc2)O[C@@H]2O[C@@]3(C)CC[C@H]4[C@H](C)CC[C@@H]1[C@@]24OO3.O=C(O)C(=O)O` ?
Response line: 3.85

Prompt line: Which pIC50 reading was recorded for the compound `CC(C)CNCCO[C@H]1O[C@@H]2O[C@@]3(C)CC[C@H]4[C@H](C)CC[C@@H]([C@H]1C)[C@@]24OO3.O=C(O)C(=O)O` ?
Response line: 4.14

----------
# Tested on: Plasmodium falciparum
# assayMethodText: Antimalarial activity against asexual erythrocyte stage of chloroquine-resistant Plasmodium falciparum Dd2 by parasite lactate dehydrogenase assay
# Format: functional, organism-based
assayReadout: pIC50
Please treat pIC50 as minus the base-10 logarithm of the molar concentration.

Prompt line: Give Plasmodium falciparum pIC50 for C[C@H]1[C@@H](O)O[C@@H]2O[C@@]3(C)CC[C@H]4[C@H](C)CC[C@@H]1[C@@]24OO3 [ARTENIMOL]
Response line: 8.46

Prompt line: Give Plasmodium falciparum pIC50 for `CC(C)N(CCNCCO[C@H]1O[C@@H]2O[C@@]3(C)CC[C@H]4[C@H](C)CC[C@@H]([C@H]1C)[C@@]24OO3)C(C)C.O=C(O)C(=O)O`
Response line: 7.32

----------
# System: Plasmodium falciparum
# assayMethodText: Antimalarial activity against asexual erythrocyte stage of chloroquine-sensitive Plasmodium falciparum D10 by parasite lactate dehydrogenase assay
# Assay type: functional, organism-based
Listing of entries alongside the reported pIC50.
Please treat pIC50 as minus the base-10 logarithm of the molar concentration.

Consider the following illustrative entries.
{"compound": "C[C@H]1[C@@H](OCCNCCN2CCOCC2)O[C@@H]2O[C@@]3(C)CC[C@H]4[C@H](C)CC[C@@H]1[C@@]24OO3.O=C(O)C(=O)O", "pIC50": 8.16}
{"compound": "C[C@H]1[C@@H](OCCNCCCn2ccnc2)O[C@@H]2O[C@@]3(C)CC[C@H]4[C@H](C)CC[C@@H]1[C@@]24OO3.O=C(O)C(=O)O", "pIC50": 8.22}
{"compound": "C[C@H]1[C@H](OC(=O)CCC(=O)[O-])O[C@@H]2O[C@@]3(C)CC[C@H]4[C@H](C)CC[C@@H]1[C@@]24OO3.[Na+] [SODIUM ARESUNATE]", "pIC50": 9.03}
{"compound": "CC(C)CNCCO[C@H]1O[C@@H]2O[C@@]3(C)CC[C@H]4[C@H](C)CC[C@@H]([C@H]1C)[C@@]24OO3.O=C(O)C(=O)O", "pIC50": 8.40}
{"compound": "C[C@H]1[C@@H](OCCNCCNc2ccccc2)O[C@@H]2O[C@@]3(C)CC[C@H]4[C@H](C)CC[C@@H]1[C@@]24OO3.O=C(O)C(=O)O", "pIC50": 8.58}

Let us examine a further case.
Prompt line: Which pIC50 reading was recorded for the compound `C[C@H]1[C@@H](OCCNCc2ccco2)O[C@@H]2O[C@@]3(C)CC[C@H]4[C@H](C)CC[C@@H]1[C@@]24OO3.O=C(O)C(=O)O` ?
Response line: 8.62

Cited source for all entries: ChEMBL document CHEMBL2057139
